For each entry below, report its IC50 value.
Molecular target: full-length human PKCι (Homo sapiens, UniProt P41743)
Construct: Recombinant, full-length human PKCι expressed in Sf21 insect cells is also commercially available; purchased; host or cells: Sf21 insect cells
Sequence (P41743 1-596): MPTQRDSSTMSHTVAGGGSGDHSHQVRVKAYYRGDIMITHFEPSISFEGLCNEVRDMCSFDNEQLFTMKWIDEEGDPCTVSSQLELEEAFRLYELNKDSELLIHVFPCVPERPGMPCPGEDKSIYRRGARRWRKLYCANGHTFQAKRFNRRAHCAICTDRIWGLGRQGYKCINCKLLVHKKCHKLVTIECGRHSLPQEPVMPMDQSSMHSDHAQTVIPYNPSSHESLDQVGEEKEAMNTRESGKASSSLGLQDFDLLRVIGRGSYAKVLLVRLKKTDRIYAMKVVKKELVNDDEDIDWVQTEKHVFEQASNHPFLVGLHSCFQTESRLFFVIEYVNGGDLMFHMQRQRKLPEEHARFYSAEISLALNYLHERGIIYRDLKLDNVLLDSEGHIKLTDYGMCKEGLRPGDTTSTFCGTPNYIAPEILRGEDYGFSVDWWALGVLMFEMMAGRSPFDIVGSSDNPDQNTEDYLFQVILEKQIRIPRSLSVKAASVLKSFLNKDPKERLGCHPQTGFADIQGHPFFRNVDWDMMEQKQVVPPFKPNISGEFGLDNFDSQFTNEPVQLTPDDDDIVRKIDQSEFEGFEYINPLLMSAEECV
Experiment: PKCι IC50 IMAP fluorescence polarisation assay, full-length enzyme
Type: biochemical
Settings: full length PKCi at 15 μM ATP; read-out: IC50 in IMAP assay against full length PKCi

Consider the worked cases shown below.
Cc1nc(C)c(-c2c(C)sc3c(NC[C@@H](N)Cc4ccccc4)nc(-c4ccncc4)nc23)s1 | 10000 to 40000 nM
CN1CCN(C(=O)c2ccc(Nc3cc(-c4nc(N[C@@H]5CCNC5)c5sccc5n4)ccn3)cc2)CC1 | 100 to 1000 nM

Would you be so kind as to report IC50 for each listed record?
1. CCCC#Cc1csc2c(NC[C@@H](N)Cc3ccccc3)nc(-c3ccncc3)nc12
2. CC(C)(C)c1sc2c(NC[C@@H](N)Cc3ccccc3)nc(-c3ccncc3)nc2c1-c1ccccc1
3. CC[C@@H](Nc1cc(-c2nc(N[C@@H]3CCNC3)c3sccc3n2)ccn1)c1ccccc1
4. NC(CNc1nc(-c2ccncc2F)nc2c(-c3ccco3)csc12)Cc1ccccc1 (stereo in doubt)
5. c1cc(-c2nc(N[C@@H]3CCNC3)c3sccc3n2)cc(NC2CC2)n1
6. Brc1csc2c(N[C@@H]3CCNC3)nc(-c3ccncc3)nc12
7. Cc1cccc(Nc2csc3c(N[C@@H]4CCNC4)nc(-c4ccncc4F)nc23)c1

Resp:
["100 to 1000 nM", "10000 to 40000 nM", "1000 to 10000 nM", "100 to 1000 nM", "1000 to 10000 nM", "< 100 nM", "10000 to 40000 nM"]

Would you be so kind as to report IC50 for each listed record?
1. CC(C)(C)c1sc2c(NC[C@@H](N)Cc3ccccc3)nc(-c3ccncc3)nc2c1-c1cccc(F)c1
2. CS(=O)(=O)Nc1cc(-c2nc(N[C@@H]3CCNC3)c3sccc3n2)ccn1
3. c1cc(-c2nc(N[C@@H]3CCCNC3)c3sccc3n2)ccn1
4. Cn1nccc1-c1csc2c(NC[C@@H](N)Cc3ccccc3)nc(-c3ccncc3)nc12

Resp:
10000 to 40000 nM
10000 to 40000 nM
1000 to 10000 nM
1000 to 10000 nM

Would you be so kind as to report IC50 for each listed record?
1. C#Cc1sc2c(N[C@@H]3CCNC3)nc(-c3ccncc3)nc2c1C
2. Cc1csc(-c2csc3c(NC[C@@H](N)Cc4ccccc4)nc(-c4ccncc4)nc23)c1
3. CCN(CC)C(=O)c1csc2c(NC[C@@H](N)Cc3ccccc3)nc(-c3ccncc3)nc12
4. CC(O)CC#Cc1csc2c(NC[C@@H](N)Cc3ccccc3)nc(-c3ccncc3)nc12 (some centres unmarked)
5. Nc1csc2c(NC[C@@H](N)Cc3ccccc3)nc(-c3ccncc3)nc12

Resp:
1: 1000 to 10000 nM; 2: 1000 to 10000 nM; 3: 1000 to 10000 nM; 4: < 100 nM; 5: 100 to 1000 nM
